Settings: buffer; pH 7.4; 200.0 µM
For each record, write down the corresponding solubility kinetic.

# solubility kinetic of COc1cc(C2=NC(CO)(CO)CO2)cc(OC)c1OC = > 44.6 µg/mL

# solubility kinetic of CC1(c2cccc(Br)c2)NC(=O)NC1=O (centres undefined) = > 40.4 µg/mL

# solubility kinetic of CNCc1cc(Cl)cc(OC)c1OC(C)C.Cl = > 42 µg/mL

# solubility kinetic of CCCN(CC(=O)Nc1ccccc1OC)C(=O)CC1CCCC1 = > 49.9 µg/mL

# solubility kinetic of O=C(CN1C(=O)NC2(CCCC2)C1=O)OCCOc1ccccc1 = > 49.9 µg/mL

# solubility kinetic of Cc1cccc(OCC(=O)NCCCNC(=O)c2ccc(C)nc2)c1 = > 51.2 µg/mL

# solubility kinetic of CC(=O)c1cccc(NC(=O)c2cccc(NC(=O)c3ccco3)c2)c1 = < 0.4 µg/mL

# solubility kinetic of O=C(O)c1cc([N+](=O)[O-])ccc1NCCc1ccccc1 = > 42.9 µg/mL

# solubility kinetic of O=S1(=O)CCN(Cc2csc(-c3cccs3)n2)CC1 = > 47.2 µg/mL

# solubility kinetic of CC(CNC(=O)COC(=O)c1ccco1)c1ccccc1 (centres undefined) = > 43.1 µg/mL

# solubility kinetic of Cc1cccc(CNC(=O)C2CCC(=O)N(C3CCCCCC3)C2)c1 (centres undefined) = > 51.4 µg/mL

# solubility kinetic of CCCCOc1ccc(CSCCN)cc1Cl.Cl = > 46.5 µg/mL

# solubility kinetic of Cn1cc(C(=O)N2CCOCC2)c2ccccc21 = > 36.6 µg/mL

# solubility kinetic of CN1CCN(c2ncnc(Cl)c2N)CC1 = > 34.2 µg/mL

# solubility kinetic of CC(C)C(=O)N1CCN(c2nc3ccc(Cl)cc3s2)CC1 = > 48.6 µg/mL

# solubility kinetic of CCN(CC)CCN=Cc1c(O)n(Cc2ccco2)c(=O)[nH]c1=O = > 50.2 µg/mL

# solubility kinetic of CCOC(=O)c1ccsc1NC(=O)c1ccco1 = < 0.6 µg/mL

# solubility kinetic of CC(=O)NCCc1ccc(C(=O)COC(=O)c2ccco2)cc1 = > 47.3 µg/mL

# solubility kinetic of Cc1ccc(-c2csc(-c3cc(C)on3)n2)cc1 = < 0.3 µg/mL

---

Settings: buffer; pH 7.4; 200.0 µM
For each record, write down the corresponding solubility kinetic.

# solubility kinetic of CCCOc1ccc(/C=C/C(=O)NC2CCCCC2)cc1OC = < 0.0007 mg/mL

# solubility kinetic of O=c1cc([O-])n(Cc2ccc(F)cc2)c(=O)[nH]1.[NH4+] = > 0.038 mg/mL

# solubility kinetic of CC(=O)Nc1ccc(C(=O)OCC(=O)Nc2ccc(S(=O)(=O)N3CCOCC3)cc2)cc1 = > 0.0692 mg/mL

# solubility kinetic of COC(=O)[C@@H](N)CS.Cl = > 0.0257 mg/mL

# solubility kinetic of CCCCC(=O)Nc1cc(OC)c(NC(=S)NC)cc1OC = > 0.0488 mg/mL

# solubility kinetic of COC(=O)c1cccn(CC(=O)c2ccc(Cl)cc2)c1=O = > 0.0459 mg/mL

# solubility kinetic of ONC(=Nc1ccccc1Cl)c1ccccc1Cl = > 0.0422 mg/mL

# solubility kinetic of Cc1cccc(NC(=O)CCN2CCCCC2)c1.Cl = > 0.0424 mg/mL

# solubility kinetic of O=C(CN1CCCCC1)Nc1ccccc1C(=O)NC1CC1 = > 0.0452 mg/mL

# solubility kinetic of Cc1ccc(C)c(OCCCCN2CCNCC2)c1C.O=C(O)C(=O)O = > 0.055 mg/mL

# solubility kinetic of NC(=O)c1ccc(NC(=O)COC(=O)CCN2C(=O)c3ccccc3C2=O)cc1 = > 0.0593 mg/mL

# solubility kinetic of CC(=O)Nc1ccc(NC(=O)Cc2ccc(-c3ccccc3)cc2)cc1 = < 0.0004 mg/mL

# solubility kinetic of O=C(NC1CCS(=O)(=O)C1)c1cccc(Br)c1 (stereo unspecified) = > 0.0477 mg/mL

# solubility kinetic of Brc1cc(-c2ccccc2)nc(-c2ccccc2)n1 = < 0.0003 mg/mL

# solubility kinetic of N#Cc1ccccc1OCC(=O)NNC(=O)c1ccncc1 = > 0.0444 mg/mL

# solubility kinetic of Cc1c(C(=O)O)cc(-c2ccccc2)n1Cc1ccccc1 = > 0.0437 mg/mL

# solubility kinetic of Cn1ccnc1SCC(=O)Nc1ccc2c(c1)OCO2 = > 0.0437 mg/mL

# solubility kinetic of Cc1cc(C)nc(NC(C)(C)C(=O)O)n1 = > 0.0314 mg/mL

# solubility kinetic of COc1cccc(-c2nc(NC3CCCC3)c3ccccc3n2)c1O = < 0.0002 mg/mL

# solubility kinetic of CCOC(=O)c1ccccc1CN1C(=O)c2ccccc2S1(=O)=O = < 0.0007 mg/mL

# solubility kinetic of CC(=O)c1ccc(NC(=S)N2CCN(CCO)CC2)cc1 = > 0.0461 mg/mL

---

For each record, write down the corresponding solubility kinetic.
Settings: buffer; pH 7.4; 200.0 µM

# solubility kinetic of CN(CCS(=O)(=O)c1ccc(Cl)cc1)Cc1cccnc1 = > 48.7 µg/mL

# solubility kinetic of O=C(Nc1ccc(C2CC2(Cl)Cl)cc1)c1cccc([N+](=O)[O-])c1 (stereo unspecified) = < 0.4 µg/mL

# solubility kinetic of Cc1ccnc(N2C3CCC2CC(O)(c2ccccc2)C3)n1 (stereo unspecified) = > 44.3 µg/mL

# solubility kinetic of COc1ccc(C(C)=O)cc1CC(=O)NCCCn1ccnc1 = > 47.3 µg/mL

# solubility kinetic of N#Cc1cc([N+](=O)[O-])ccc1NCCc1ccccn1 = > 40.2 µg/mL

# solubility kinetic of O=C(NCC1CCCCC1)c1ccc(=O)[nH]c1 = > 35.1 µg/mL

# solubility kinetic of CC(NC(=O)CCN1C(=O)c2ccccc2C1=O)c1ccccc1 (stereo unspecified) = > 48.4 µg/mL

# solubility kinetic of COC(=O)c1sc(NC(=O)c2c(C)noc2C)nc1C = > 44.3 µg/mL

# solubility kinetic of Cc1ccc(C)c(NC(=O)CCN2CCN(C)CC2)c1 = > 41.3 µg/mL

# solubility kinetic of CCS(=O)(=O)N1CCN(CC(=O)NC2CCCCC2)CC1.Cl = > 53.1 µg/mL

# solubility kinetic of COc1ccccc1C(=O)Nc1sc2c(c1C(N)=O)CCCC2 = < 0.4 µg/mL

---

Settings: buffer; pH 7.4; 200.0 µM
For each record, write down the corresponding solubility kinetic.
The response must be a number in µg/mL with no trailing unit.

# solubility kinetic of COc1ccc(N2CC(NC(=O)Nc3ccccc3)CC2=O)cc1 (stereo not drawn) = 19.7

# solubility kinetic of Cc1cc(Nc2cc(Cl)cc(Cl)c2)nc(N)n1 = 20

# solubility kinetic of CN1CCN(c2ccc(NC(=O)c3cc4ccccc4o3)cc2)CC1 = 19.6

---

Settings: buffer; pH 7.4; 200.0 µM
Readout kind: solubility kinetic

# solubility kinetic of CC(C)c1ccc(NC(=O)N2C[C@H]3C[C@@H](C2)c2cccc(=O)n2C3)cc1 = > 52.7 µg/mL

# solubility kinetic of COC(=O)CNC(=O)COC(=O)c1cc(SC)ccc1Cl = > 49.8 µg/mL

# solubility kinetic of Cc1ccsc1C(=O)OCc1nc2ccsc2c(=O)[nH]1 = > 46 µg/mL

# solubility kinetic of Cc1sc2ncnc(NC(C)C(=O)O)c2c1C (stereo unspecified) = > 37.7 µg/mL

# solubility kinetic of CN(Cc1ccc(F)cc1)C(=O)COc1ccc2ccccc2c1 = < 0.7 µg/mL

# solubility kinetic of COc1ccccc1C(=O)Nc1ccc(Nc2ccccc2)cc1 = < 0.3 µg/mL

# solubility kinetic of Cc1ccc2c(Cl)c(C(=O)NC3CC3)sc2c1 = < 0.6 µg/mL

# solubility kinetic of O=C(Cc1ccc([N+](=O)[O-])cc1)NCc1ccccn1 = > 40.7 µg/mL

# solubility kinetic of CSCC[C@H](NC(=O)Nc1ccc(Oc2ccccc2)cc1)C(=O)O = > 54.1 µg/mL

# solubility kinetic of Cc1ccc(NC(=O)c2ccc3nccnc3c2)c(C)c1 = > 41.6 µg/mL

# solubility kinetic of CC(=O)n1c(-c2ccccc2)c(-c2ccccc2)n(C)c1=O = > 43.9 µg/mL

---

Settings: buffer; pH 7.4; 200.0 µM
For each record, write down the corresponding solubility kinetic.

# solubility kinetic of Cc1nn(CC(=O)NC2(C#N)CCCCC2)c(C)c1[N+](=O)[O-] = > 45.8 µg/mL

# solubility kinetic of COC(=O)c1cc(=O)c2cccc(OC)c2[nH]1 = > 35 µg/mL

# solubility kinetic of COc1ccc(C(=O)NCCc2ccccc2)cc1[N+](=O)[O-] = > 45 µg/mL

# solubility kinetic of CC1CCN(C(=O)COC(=O)c2ccc3ccccc3n2)CC1 = > 46.9 µg/mL

# solubility kinetic of CC(C)(C)S(=O)(=O)Cc1nc(-c2ccc(Cl)c(Cl)c2)cs1 = < 0.8 µg/mL

# solubility kinetic of O=C(O)c1cc2cc(Oc3ccccc3)ccc2[nH]1 = > 38 µg/mL

# solubility kinetic of COc1ccc(CNC(=O)C2CCN(C(=O)Cc3ccccc3)CC2)cc1 = > 55 µg/mL

The reported measurements were obtained from PubChem BioAssay AID1996.
